B1: SCNN1D (parent)
chain: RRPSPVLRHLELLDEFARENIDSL

# Variants of: B1
# experimentalProtocol: protein stability index of a GFP-peptide fusion (GPS, HEK-293T) (PSI 1-6); higher = more stable;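 also: lentivirally expressed fusions sorted by FACS into six bins by GFP to DsRed ratio, PSI derived from sequencing read proportions per bin multiplied by bin number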
# testSettings: c terminus: a fixed tail appended
measurementName: protein stability index
// print number alone

Before answering, review these 2 worked examples.
>>> observedresult("RRPSPVLRHLELKDEFARENIDSL [L13K]")
3.9
>>> observedresult("RRPSPVLRHLELLDEFAIENIDSL [R18I]")
2.44

Return reported protein stability index; argument: RRPSPVLRHLELLDEFARENIKSL [D22K] 2.97

I would be grateful if you could share the reported protein stability index for RRPSPVLRILELLDEFARENIDSL [H9I] . 2.24
